Test system: Mycobacterium tuberculosis H37Rv
Experiment: Minimum inhibitory concentration (MIC90) against Mycobacterium tuberculosis H37Rv, Middlebrook 7H9, 96-well plate, 15 days
Format: cell-based
Conditions: Mycobacterium tuberculosis, H37RV, 360 h, Mycobacterium tuberculosis H37Rv, 15 days of incubation, 90% inhibition of growth, visual reading
Where a name gives a salt, the structure may show the parent alone.
measure: MIC90 (mg/L)
Supply the numeric figure in mg/L, leaving out any unit text.

>>> numeric_result("[2H]c1c(O)c(C([2H])([2H])N2C([2H])([2H])CC(C(O)CCC)CC2([2H])[2H])c2c3c(oc2c1[2H])-c1ccc(O)cc1C([2H])([2H])OC3=O (stereo not drawn) [YF045, hydrochloride]")
0.0156

Ask: Give MIC90 for the following molecule: [2H]c1c(O)c(C([2H])([2H])N2CCC([2H])(C(O)C([2H])([2H])CC)CC2)c2c3c(oc2c1[2H])-c1ccc(O)cc1C([2H])([2H])OC3=O (stereo not drawn) [YF047, hydrochloride]
Reply: 0.0156

---

Experiment: Pharmacokinetics and lung tissue distribution in mice, LC-MS/MS
Type: in vivo, Balb/C mice
Conditions: mouse, in vivo, po, 100 mg/kg
Each record here notes measured AUC(0-t) at 24 h.
Provide a numeric answer, followed by its unit.

>>> result("CCCC(=O)C1CCN(Cc2c(O)ccc3oc4c(c23)C(=O)OCc2cc(O)ccc2-4)CC1 [Compound C]")
"4960 ng·h/mL"

Ask: State its AUC(0-t) at 24 h: CCCC(O)C1CCN(Cc2c(O)ccc3oc4c(c23)C(=O)OCc2cc(O)ccc2-4)CC1 (stereo not shown) [Compound D]
Reply: 4470 ng·h/mL

Ask: State, in one line, measured AUC(0-t) at 24 h of O=C1OCc2cc(O)ccc2-c2oc3ccc(O)c(CN4CCC(c5cccc(Cl)c5)CC4)c3c21 [Compound B]
Reply: 10300 ng·h/mL

Ask: Return value of AUC(0-t) at 24 h for input CC(C)(C)c1cc(O)c(CN2CCCCC2)c2c1oc1c3ccc(O)cc3oc(=O)c12 [Compound A, reference compound] , no commentary.
Reply: 117 ng·h/mL

---

Test: Pharmacokinetics and lung tissue distribution in mice, LC-MS/MS
Assay type: in vivo, Balb/C mice
Details: mouse, in vivo, po, 100 mg/kg
measure: Tmax (min)
Numbers only here, please. The scale is min.

>>> numeric_result("O=C1OCc2cc(O)ccc2-c2oc3ccc(O)c(CN4CCC(c5cccc(Cl)c5)CC4)c3c21")
60

Ask: Please give measured Tmax of the following entry: `Cl.[2H]C1([2H])CCCC([2H])([2H])N1C([2H])([2H])c1c(O)cc(C(C)(C)C)c2oc3c4ccc(O)cc4oc(=O)c3c12`
Reply: 30

Ask: For the compound CC(C)(C)c1cc(O)c(CN2CCCCC2)c2c1oc1c3ccc(O)cc3oc(=O)c12 [Compound A, reference compound] , give its measured Tmax value.
Reply: 10

Ask: Kindly indicate its recorded Tmax. Item: `CCCC(=O)C1CCN(Cc2c(O)ccc3oc4c(c23)C(=O)OCc2cc(O)ccc2-4)CC1`
Reply: 30

---

Assay: Pharmacokinetics and lung tissue distribution in mice, LC-MS/MS
Type: in vivo, Balb/C mice
Settings: mouse, in vivo, po, 100 mg/kg
// values below are reported CL
Entry rule: numbers only, all in mL/min/kg.

>>> numeric_result("CCCC(=O)C1CCN(Cc2c(O)ccc3oc4c(c23)C(=O)OCc2cc(O)ccc2-4)CC1 [Compound C]")
307.2
>>> numeric_result("CCCC(O)C1CCN(Cc2c(O)ccc3oc4c(c23)C(=O)OCc2cc(O)ccc2-4)CC1 (stereo not shown) [Compound D]")
371.3

Ask: Consider the compound Cl.[2H]C1([2H])CCCC([2H])([2H])N1C([2H])([2H])c1c(O)cc(C(C)(C)C)c2oc3c4ccc(O)cc4oc(=O)c3c12 [YF027] . State its measured CL.
Reply: 4377.2

Ask: Give recorded CL. O=C1OCc2cc(O)ccc2-c2oc3ccc(O)c(CN4CCC(c5cccc(Cl)c5)CC4)c3c21 [Compound B]
Reply: 161

---

Tested on: Mycobacterium tuberculosis H37Rv
Assay: Minimum inhibitory concentration (MIC90) against Mycobacterium tuberculosis H37Rv, Middlebrook 7H9, 96-well plate, 15 days
Format: cell-based
Conditions: Mycobacterium tuberculosis, H37RV, 360 h, Mycobacterium tuberculosis H37Rv, 15 days of incubation, 90% inhibition of growth, visual reading
Counter-ions that a name gives are not always drawn.
measure: MIC90
Mention the unit after the number when you answer.

Answered cases to consult:
>>> result("[2H]C(O)(CCC)C1CC([2H])([2H])N(C([2H])([2H])c2c(O)ccc3oc4c(c23)C(=O)OCc2cc(O)ccc2-4)C([2H])([2H])C1 (stereo not drawn)")
"0.0156 µg/mL"
>>> result("[2H]C([2H])(c1c(O)ccc2oc3c(c12)C(=O)OCc1cc(O)ccc1-3)N1CCC(C(=O)CCC)CC1")
"0.0625 µg/mL"

Now look at this one.
Ask: Identify MIC90 associated with the compound [2H]C1([2H])CC(C(O)CCC)CC([2H])([2H])N1C([2H])([2H])c1c(O)ccc2oc3c(c12)C(=O)OCc1cc(O)ccc1-3 (stereo not drawn) [YF043, hydrochloride]
Reply: 0.0156 µg/mL

---

Experiment: Pharmacokinetics and lung tissue distribution in mice, LC-MS/MS
Type: in vivo, Balb/C mice
Settings: mouse, in vivo, po, 100 mg/kg
Method: In this example, the pharmacokinetic parameters and lung tissue distribution of the deuterated compounds YF027, YF032, YF036, and YF044 and their respective non-deuterated control compounds (A, B, C, and D) were determined. […] The concentrations of the compounds of the present disclosure and control compounds in plasma and lung tissue were determined using LC-MS/MS. […]
measure: AUC(0-inf) (ng·h/mL)
Answer with a number only, understood to be in ng·h/mL.

// known answers, use as guide
>>> numeric_result("CC(C)(C)c1cc(O)c(CN2CCCCC2)c2c1oc1c3ccc(O)cc3oc(=O)c12 [Compound A, reference compound]")
121
>>> numeric_result("O=C1OCc2cc(O)ccc2-c2oc3ccc(O)c(CN4CCC(c5cccc(Cl)c5)CC4)c3c21")
10400
>>> numeric_result("CCCC(O)C1CCN(Cc2c(O)ccc3oc4c(c23)C(=O)OCc2cc(O)ccc2-4)CC1 (stereo not shown)")
4500

Next, consider the following compound.
Ask: Return AUC(0-inf) (reported value) for this compound: `CCCC(=O)C1CCN(Cc2c(O)ccc3oc4c(c23)C(=O)OCc2cc(O)ccc2-4)CC1`
Reply: 5430

---

Test system: Mycobacterium tuberculosis H37Rv
Test: Minimum inhibitory concentration (MIC90) against Mycobacterium tuberculosis H37Rv, Middlebrook 7H9, 96-well plate, 15 days
Assay type: cell-based
Details: Mycobacterium tuberculosis, H37RV, 360 h, Mycobacterium tuberculosis H37Rv, 15 days of incubation, 90% inhibition of growth, visual reading
Measured MIC90 of individual entries

Completed entries (count: 2):
>>> result("[2H]C([2H])(c1c(O)cc(C(C)(C)C)c2oc3c4ccc(O)cc4oc(=O)c3c12)N1C([2H])([2H])C([2H])([2H])C([2H])([2H])C([2H])([2H])C1([2H])[2H] [YF005]")
"≤ 3.9 ng/mL"
>>> result("[2H]C1([2H])CCCC([2H])([2H])N1C([2H])([2H])c1c(O)cc(C(C)(C)C)c2oc3c4ccc(O)cc4oc(=O)c3c12 [YF003]")
"≤ 3.9 ng/mL"

Ask: Return reported MIC90. Input molecule: [2H]C([2H])(c1c(O)cc(C(C)(C)C)c2oc3c4ccc(O)cc4oc(=O)c3c12)N1CCCCC1 [YF001]
Reply: ≤ 3.9 ng/mL

Cited source: patent EP4775586A1
